- method.notes: Volume of distribution in rat at 1 mg/kg, iv
- Assay type: ADME, organism-based
- test.parameters: in vivo
measured.attribute: Vd (L/kg)
Hi! Could you send only the number? It should be in L/kg, unit omitted.

Notebook: CN1C(=O)[C@@H](NC(=O)c2cc(Cc3ccccc3)on2)CNc2ccccc21 , Vd read as 2.2

----------
- method.notes: Cmax in rat at 2 mg/kg, po
- Type: ADME, organism-based
- Parameters: dose 2 mg/kg, route oral
- test.parameters: in vivo
measured.attribute: Cmax (ng/mL)
Return type: number; implicit unit ng/mL.

Record O=C(N[C@H]1COc2ccccc2NC1=O)c1cc(Cc2ccccc2)on1 . Reported Cmax: 810

----------
- method.notes: AUC(0 to infinity) in mouse at 30 mg/kg, po
- Type: ADME, organism-based
- Set-up: dose 30 mg/kg, route oral, time infinity
- test.parameters: in vivo
measured.attribute: AUC(0-inf)

According to the records, this molecule CN1C(=O)[C@@H](NC(=O)c2cc(Cc3ccccc3)on2)CNc2ccccc21 displays AUC(0-inf) of 2000 ng·h/mL

----------
- method.notes: AUC in rat at 2 mg/kg, po
- Format: ADME, organism-based
- test.parameters: in vivo
measured.attribute: AUC
I'd appreciate it if you included the unit after the number.

Notebook: O=C(N[C@H]1COc2ccccc2NC1=O)c1cc(Cc2ccccc2)on1 , AUC read as 2200 ng·h/mL

----------
- method.notes: Half life in rat at 1 mg/kg, iv
- Assay type: ADME, organism-based
- test.parameters: in vivo
measured.attribute: half-life (min)
Write it as a number; the unit min goes unstated.

// half-life lookup, molecule = CN1C(=O)[C@@H](NC(=O)c2cc(Cc3ccccc3)on2)CNc2ccccc21 , result: 51

----------
- method.notes: Half life in rat at 2 mg/kg, po
- Type: ADME, organism-based
- test.parameters: in vivo
half-life values, listed per item
Record the value in h, omitting the unit from your answer.

CN1C(=O)[C@@H](NC(=O)c2cc(Cc3ccccc3)on2)CNc2ccccc21 ... 1.9

Lab book: half-life of O=C(N[C@H]1COc2ccccc2NC1=O)c1cc(Cc2ccccc2)on1 noted as 2.9
